- ASSAY REMARKS: yeast display, Sf9 membrane polyspecificity reagent, FACS + sequencing; frameworks hold sequencing errors
RECORDED ENDPOINT: polyreactivity (PSR sort gate)

QVQLVESGGGLVQAGGSLRLSCAASGFTFRDYAMGWYRPAPGKERELVAAIDIGTTTYYADSVKGRFTISRDNAKNTVYLQMNSLKPEDSAVYYCNKGTNRSGGYDSWGQGTQVTVSS : low polyreactivity
QVQHVESGGGLVQAGGSLRLICAASGITFHYYAMGWYRQAPGKDRELVAAISSGGRTNYADSVKGRFTISRDNAKNTVYLQMNCLKPEDTAVYYCAGVYFGGYTATVYYWGQGTQVTVSS : high polyreactivity
QVQLVESGAGLVQAGGSLRLSCAASGRIFRVYAMGWYRQAPGQERELVAAITSGGTTYADSVKGRLTISRDNAKKTVYLQMNILKPEDTAVYYCAARYYIHRGYDYDYWGQGTQVTVSS : high polyreactivity
QVQLVESGGGLVQAGGSLRLSCAASGSIFRPNDMGWYRQAPGKERELVAAISTGGSTSYADSVKGRFTISRDNAKNTVYLQMNSLKPEDTAVYYCAAVYYLTDWYGVWYSFDYWGQGTQVTVSS : low polyreactivity

Okay, next one:
Query: Which polyreactivity (PSR sort gate) is reported for this sequence? QVQLVESGGGLVQAGGSLRLSCAASGGTFGSYAMGWYRQAPGKERELVAAITGSGGRTYYADSVKGRFTISRDNAKNTVYLQMNSLKPEDTAVYYCNATRGIGPPFYYWGQGTKVTVSS
Result: high polyreactivity
